# Substrate: PET
# ASSAY_SUMMARY: Proxy for plastic degradation [HPLC-UV] (mmol)
# STUDY_CONDITIONS: pH 8; 60 °C
# maps each entry to its Proxy for plastic degradation

{"PROTEIN": "unnamed (protein) MEKPVVFENEGQQIVGMLHAPDGAEGLSPAVVMFHGFTGTKVEPHRLFVKTARRLAEEGFYVLRFDFRGSGDSEGEFREMTLEGEISDAKASLDFILSQPGVDRGRIGVIGLSMGGGVAACLAGRDERVRAVALWAAVSEDPPDLFQELIKTFEERPDKSVDYVDMGGNLVGKGFFEDLRNVKPLQEISGFEGPVLIVHGDNDQTVSVEHAYRFYERLKGKHPLTALHIIRGADHTFNSHEWEREVIEVTVDFMKRA", "Proxy for plastic degradation": 0}
{"PROTEIN": "unnamed (protein) VEPLADPAKPGPYPVGVTTMLLVDHSRTDNALAGGPRSLMTEIWYPATDDTRGLPKNRLLDFFNRNTDPGFTVLLKMAFGIDLIQADKDFRNDAVRDARVRDGRFPLVLFSHGNGGIRMQNAYWCEHMASHGYIVMAPDHTGNCAVTFIDGRIFPFNDSEEGREQSRQDRPKDISFLIDAMERMNKGADSRFMGKVDLDHIGVAGHSFGGFTSTWVADAEPRVDAIVPMAGAGAERVNYTCPVMVLVATEDDTLGPERMADLRRYYDESKGPRYLVEFLNAGHFSFTEMYQLKPDFGDGCGTGTRITNGEPLTYIAMDVAFPLIKGYTTAFFGKYLKGLDGYDAYLAANHNPNELVVKSSIPETPQ", "Proxy for plastic degradation": 0}
{"PROTEIN": "unnamed (protein) VGTISFDLVDKERLELYGDKIGEERKFKAQMWYPSDDVTEGERAPWIEDGVKVSRMIPKDIGLPGFLIDYSSLIKSNSYKGVPISEKEEKYPIVIISHGWTGYRNIHTDIGELLASHGYIAISIDHTYGSLATVFDNGEVIEVDYGALPNRNETEDFLDYANALVTTYAYDSRFVLDYLEELDDSELIDGRLDLDRIGTLGHSTGGGGVVKIAIEDDRIKAIFGFDPWVEPIEDELLKIGLDVPSLFIRSEQWEEGYNNGYLTTLINHSVIKPMTYQMNGVNHLDFTMLYMYRPILQAFGFAGELDSQVSSKIQLEYVLKFFETYLKDNETNLNDIEKIYDSVIPVNY", "Proxy for plastic degradation": 0}
